- Run description: Oral bioavailability in Wistar rat at 10 mg/kg administration
- Format: ADME, organism-based
- Assay setup: in vivo
Listed next: entries and their corresponding bioavailability.
Assay metric: bioavailability (%)

1) COc1cc(NC(=O)Cc2ccc(C(F)(F)F)cc2)ccc1C[C@H]1COC(=O)N1 | 71
2) COc1cc(NC(=O)Cc2ccc(Cl)cc2)ccc1C[C@H]1COC(=O)N1 | 27
3) COc1nc(NC(=O)Cc2ccc(Cl)cc2)ccc1C[C@H]1COC(=O)N1 | 62
4) COc1cc(NC(=O)Cc2ccc(Br)cc2)ccc1C[C@H]1COC(=O)N1 | 23

====

- Run description: Unbound fraction in Wistar rat plasma at 0.05 mg/kg,iv or 10 mg/kg,po administration
- Assay type: ADME, organism-based
Assay metric: fraction unbound

1) COc1cc(NC(=O)Cc2ccc(Cl)cc2Cl)ccc1C[C@H]1COC(=O)N1 | 0.022
2) COc1cc(NC(=O)Cc2ccc(Br)cc2)ccc1C[C@H]1COC(=O)N1 | 0.022

====

- Run description: Inhibition of Inward-rectifier potassium channel (unknown origin)
- Set-up: species or system Homo sapiens
Assay metric: IC50 (µM)

1. COc1cc(NC(=O)Cc2ccc(Br)cc2)ccc1C[C@H]1COC(=O)N1 | 21.1
2. COc1cc(NC(=O)Cc2ccc(Cl)cc2)ccc1C[C@H]1COC(=O)N1 | 24.5
3. COc1nc(NC(=O)Cc2ccc(Cl)cc2)ccc1C[C@H]1COC(=O)N1 | 14.2
4. COc1cc(NC(=O)Cc2ccc(Cl)cc2Cl)ccc1C[C@H]1COC(=O)N1 | 20.9
5. COc1cc(NC(=O)Cc2ccc(C(F)(F)F)cc2)ccc1C[C@H]1COC(=O)N1 | 25.1

====

- Run description: Unbound fraction in Wistar rat plasma at 3 mg/kg,iv or 10 mg/kg,po administration
- Assay type: ADME, organism-based
Listed next: entries and their corresponding fraction unbound.
Assay metric: fraction unbound

1. COc1cc(NC(=O)Cc2ccc(Cl)cc2)ccc1C[C@H]1COC(=O)N1 | 0.027
2. COc1nc(NC(=O)Cc2ccc(Cl)cc2)ccc1C[C@H]1COC(=O)N1 | 0.025
